- System: FT3469 (normal neural stem cell line)
- Assay name: surviving fraction (nuclei count normalised to DMSO); higher = more cells surviving (less toxic);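 further: nuclei counted by high-content imaging of Hoechst-stained cells in laminin-coated 384-well plates, relative to 0.1% DMSO vehicle wells, with staurosporine as cell-death control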
- Conditions used: 4.1 nM; exposure time: 72 h
Counter-ions that a name gives are not always drawn.
Endpoint label: surviving fraction
Enter the number alone.

Dear colleague, I am looking for the recorded surviving fraction of the following compound: `Cc1cc(Nc2cc(N3CCN(C)CC3)nc(Sc3ccc(NC(=O)C4CC4)cc3)n2)n[nH]1`
0.899

Any idea what its surviving fraction is? The compound is `COC(=O)C[C@](O)(CCCC(C)(C)O)C(=O)O[C@@H]1C(OC)=C[C@]23CCCN2CCc2cc4c(cc2[C@H]13)OCO4`
0.701

Given the entry c1ccc2c(c1)[I+]c1ccccc1-2 [Diphenyleneiodonium chloride] , report its measured surviving fraction.
0.771

Record request: surviving fraction value, item `Nc1nc(=O)c2nc(CNc3ccc(C(=O)N[C@@H](CCC(=O)O)C(=O)O)cc3)cnc2[nH]1`
1.16

Field request: surviving fraction | item: `CNc1ccc2oc(C[C@H]3O[C@@]4(CC[C@H]3C)O[C@H]([C@H](C)C(=O)c3ccc[nH]3)[C@H](C)C[C@H]4C)nc2c1C(=O)O`
1.05

Entry COc1ccc(/C=C\c2cc(OC)c(OC)c(OC)c2)cc1OP(=O)(O)O [Fosbretabulin Disodium] has what surviving fraction?
0.907

What surviving fraction value was documented for this compound, `C=CC(=O)Nc1cccc(Oc2nc(Nc3ccc(N4CCN(C)CC4)cc3)nc3ccsc23)c1` ?
0.879

# get_value(readout='surviving fraction', item= `CCN1CCN(C(=O)Cc2ccc(Nc3ncc(F)c(Nc4ccc(C(=O)Nc5ccccc5Cl)cc4)n3)cc2)CC1` )
1.01

Record request: surviving fraction value, item `Oc1ccc(OCc2ccccc2)cc1`
1.35

Give its surviving fraction value. Item: `CC(C)C[C@H](NC(=O)[C@H](Cc1ccccc1)C[C@@H](O)[C@H](Cc1ccccc1)NC(=O)OC(C)(C)C)C(=O)N[C@@H](Cc1ccccc1)C(N)=O`
0.944

Value lookup for surviving fraction; key = `COc1cc([C@@H]2c3cc4c(cc3[C@H](O)[C@H]3COC(=O)[C@H]23)OCO4)cc(OC)c1OC`
0.517

Give the measured surviving fraction of CN(C)C(=O)Oc1ccc[n+](C)c1 [Pyridostigmine iodide] .
1.01

Dear colleague, I am looking for the recorded surviving fraction of the following compound: CC(C)NCC(O)COc1cccc2ccccc12 (stereo not given) [Propranolol hydrochloride]
0.985

Endpoint output: surviving fraction of NC1CCN(c2nc3c(cc2F)c(=O)c(C(=O)O)cn3-c2ccc(F)cc2F)C1 (stereo not given) [Tosufloxacin hydrochloride] . Value?
0.927

Which surviving fraction reading was recorded for the compound COC(=O)C1=C(C)NC(C)=C(C(=O)OCC(C)C)C1c1ccccc1[N+](=O)[O-] (stereo not given) ?
0.965

----------
- Tested on: E21 (patient-derived glioblastoma stem cells of mesenchymal subtype)
- Assay name: surviving fraction (nuclei count normalised to DMSO); higher = more cells surviving (less toxic)
- Conditions used: 12.34567901 nM; exposure time: 72 h
Where a name gives a salt, the structure may show the parent alone.
Form field: surviving fraction (one value per entry).
Number only, please.

| Compound | surviving fraction |
| --- | --- |
| CCN(CC)CCCC(C)Nc1c2ccc(Cl)cc2nc2ccc(OC)cc12 (stereo unspecified) [Quinacrine dihydrochloride hydrate] | 0.974 |

What value of surviving fraction has been reported for the following compound? COC(=O)[C@@H]1[C@H]2C[C@H]3c4[nH]c5ccccc5c4CCN3C[C@@H]2CC[C@@H]1O [Yohimbine hydrochloride]
1.01

Please look up its surviving fraction: O=c1c2ccccc2[se]n1-c1ccccc1 [Ebselen]
1.15

Recorded surviving fraction for OCCN1C[C@H](O)[C@@H](O)[C@H](O)[C@H]1CO [Miglitol] , please?
0.86

Consider the compound CC(C)C[C@H](NC(=O)[C@H](Cc1ccccc1)C[C@@H](O)[C@H](Cc1ccccc1)NC(=O)OC(C)(C)C)C(=O)N[C@@H](Cc1ccccc1)C(N)=O [L-685,458] and give its measured surviving fraction.
0.958

Name the reported surviving fraction value associated with the compound C[C@@H](O)[C@H]1C(=O)N2C(C(=O)O)=C(S[C@@H]3CN[C@H](C(=O)N(C)C)C3)[C@H](C)[C@H]12 [Meropenem]
1.14
